Assay: HSF-1 activators, primary screen, NIH3T3-HGL cells, MG132 stress, luminescence, single point (AID 504408);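 also: 0% = median of the neutral control wells and 100% = twice that signal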
Details: NIH3T3-HGL HSF-1 luciferase reporter, MG132, 8 h; at 9 µM; active compounds read high; 100% = twice DMSO control signal
About 5,200 (1.7%) of roughly 300,000 compounds were called active. The list comes from a sample in which actives are over-represented; it also holds close analogues and randomly drawn compounds.
Observed property: activation (%)
Numbers only, in %.

# example entries with known answers
Structure smiles	Observed
Cc1ccc(O)c(NC(=O)COc2cc(C)ccc2C)c1	76.7
O=C(NC1CCCCCC1)c1cccnc1Sc1ccc(Cl)cc1	-8.73
COc1ccc(S(=O)(=O)Nc2ccc3oc(C)c(C(C)=O)c3c2)cc1	-13
CCN(Cc1ccccc1)S(=O)(=O)c1cc2c3c(c1)CCN3C(=O)CC2	23.7

Required: activation, one value per compound below.
1. Cc1ccc(-c2csc(-c3cc(C)on3)n2)cc1
2. O=C(NC1CCCCC1)c1ccc(-c2ccc(Cl)cc2)o1

[A]
[28.5, 67.1]

* * *

Experiment: HSF-1 activators, primary screen, NIH3T3-HGL cells, MG132 stress, luminescence, single point (AID 504408);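 also: 0% = median of the neutral control wells and 100% = twice that signal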
Settings: NIH3T3-HGL HSF-1 luciferase reporter, MG132, 8 h; at 9 µM; 100% = twice DMSO control signal
Screen size: about 300,000 compounds; about 5,200 (1.7%) were called active.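 The calls were made as follows: active = mean replicate activation of at least 50% with a set share of replicates each reaching 50%; inconclusive = only one of those two conditions met; inactive = mean below 50% and too few replicates reaching it.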 The list comes from a sample in which actives are over-represented; it also holds close analogues and randomly drawn compounds.
Outcome (select one): active, inactive

Sample answers from the record:
Compound	Classification
O=C(NCCS(=O)(=O)NCc1ccc(Cl)cc1)c1ccccc1	inactive
COc1ccc(-c2c3c(=O)n(C)c(=O)n(C)c3cn2NC(C)=O)cc1	inactive
N#Cc1cccc(NC(=O)COC(=O)c2ccccc2C(=O)c2ccc(Cl)c([N+](=O)[O-])c2)c1	active
Cc1ccc(-c2nn(-c3ccc(F)cc3)cc2C(=O)NCC(c2cccs2)N2CCOCC2)cc1 (centres undefined)	inactive
CCCc1cc(=O)[nH]c2nnc(SCC(=O)Nc3nnc(SCC)s3)n12	inactive
Cc1noc(C)c1/C=N/Nc1ccc2ccccc2n1	active
Cc1ccc(C(=O)N/N=C/c2cccc3ccccc23)cn1	inactive
CCOC(=O)N1CCN(Cc2nc3cc(NC(C)=O)ccc3n2C)CC1	inactive

[Q] Assay outcome for `CC(=O)NCCc1nc2cc(NC(=O)c3ccccc3)ccc2n1C` : what was it?
[A] inactive

[Q] Assay outcome for `COc1cc(C(=O)NCC(=O)NCCSc2ccc(Br)cc2)cc(OC)c1OC` : what was it?
[A] inactive

* * *

Assay: HSF-1 activators, primary screen, NIH3T3-HGL cells, MG132 stress, luminescence, single point (AID 504408);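 also: 0% = median of the neutral control wells and 100% = twice that signal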
Conditions: NIH3T3-HGL HSF-1 luciferase reporter, MG132, 8 h; at 9 µM; active compounds read high; 100% = twice DMSO control signal
About 5,200 (1.7%) of roughly 300,000 compounds were called active. The list comes from a sample in which actives are over-represented; it also holds close analogues and randomly drawn compounds.
Observed property: activation

# example entries with known answers
Compound	activation
CCc1nnc(SCc2cccc(F)c2)nc1CC	-33.8% (inactive)
CCCCN(C1CCS(=O)(=O)C1)S(=O)(=O)c1ccc(C(C)C)cc1 (stereo unspecified)	0.442% (inactive)
Nc1cc(N)nc(SCc2ccc(Cl)cc2)n1	-15.7% (inactive)
COc1cccc(/C=C/C(=O)OCC(=O)N2CCCc3ccccc32)c1	-15.2% (inactive)

Required: activation, one value per compound below.
1. Cc1ccc(/C=C/C(=O)Nc2cc(S(=O)(=O)N3CCCCCC3)ccc2OCC(F)(F)F)o1
2. Nc1cc(N)nc(SCc2cccc(F)c2)n1

[A]
2.76% (inactive)
76.5% (active)
